Target: human ETB receptor (Homo sapiens)
Construct: expressed in transfected cells; host or cells: 293T-17 cells, transient transfection
Sequence (P24530 27-442): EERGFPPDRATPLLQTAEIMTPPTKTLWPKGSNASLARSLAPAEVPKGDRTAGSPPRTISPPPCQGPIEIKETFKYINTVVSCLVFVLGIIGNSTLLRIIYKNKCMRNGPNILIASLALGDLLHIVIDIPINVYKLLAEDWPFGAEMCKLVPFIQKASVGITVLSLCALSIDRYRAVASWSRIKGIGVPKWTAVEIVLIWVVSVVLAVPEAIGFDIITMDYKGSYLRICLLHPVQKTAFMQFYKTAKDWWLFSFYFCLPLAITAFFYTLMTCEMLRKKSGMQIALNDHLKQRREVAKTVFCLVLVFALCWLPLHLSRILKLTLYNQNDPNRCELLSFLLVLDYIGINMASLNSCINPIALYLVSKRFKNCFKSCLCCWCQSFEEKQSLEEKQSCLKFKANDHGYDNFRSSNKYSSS
Assay: Screening of polypeptides for activity on human ETB receptor (IP-One Gq kit, % of positive control IRL1620)
Assay type: cell-based
Conditions: @10nM
Numbered stars: 1 amine (or outer) side, 2 acyl side, 3 side chain; on linkers, the order of the positions; unused ones are H or OH. Side chains are listed from the residue outwards. Ends that are not written are not given here. * marks the point of attachment. C18 diacid = O=C(O)CCCCCCCCCCCCCCCCC(=O)*; γGlu = O=C(O)[C@H](CCC(=O)[*:2])N[*:1]; Hexadienoyl(2E,4E) = C/C=C/C=C/C(=O)*; Fumaroyl = O=C(O)/C=C/C(=O)*; Suc = O=C(CCC(=O)[*:2])[*:1]; AEEA = NCCOCCOCC(=O)O
Answer each item with its documented hETBR agonist activity, percentage of activity relative to IRL1620.

Incoming: If you can, please state the reported hETBR agonist activity, percentage of activity relative to IRL1620 value of Fum-DEEAKYFAHK(-γE-AEEA-AEEA-ODDA)DIIW (Fumaroyl-DEEAKYFAHK([γGlu-AEEA-AEEA-C18 diacid])DIIW) [BX-107] .
Outgoing: 50.48%@10nM

Incoming: Then what about the substance Fum-DEEK(-γE-AEEA-AEEA-ODDA)VYFAHLDIIW (Fum-DEEK with lipidated linker N-terminal) [BX-66] ?
Outgoing: 7.67%@10nM

Incoming: Then what about the substance Fum-DEEAK(-γE-AEEA-AEEA-ODDA)YFAHLDIIW [BX-109] (Fum-DEEAK with lipidated linker N-terminal) ?
Outgoing: -1095.4%@10nM

Incoming: Then what about the substance Suc-DE cyclo(CEEC)YFAHKDIIW (Suc-DECEECYFAHKDIIW; not fully specified (bridges); printed as Suc-DE cyclo(CEEC)YFAHKDIIW; also: cyclo(CEEC) in N-terminal extension, bond type not given here) [BX-57] ?
Outgoing: 86.20%@10nM

Incoming: Then what about the substance SA-DEEAVYFAHLDIIW ({Hexadienoyl(2E,4E)}-DEEAVYFAHLDIIW) [BX-111] ?
Outgoing: -11.84%@10nM

# ---- query substance ----
Incoming: If you can, please state the reported hETBR agonist activity, percentage of activity relative to IRL1620 value of Fum-DEEAKYFAHLDVIW (Fumaroyl-DEEAKYFAHLDVIW) [BX-106] .
Outgoing: 117.57%@10nM

---

Biological target: human ETB receptor (Homo sapiens, UniProt P24530)
Construct: expressed in transfected cells; host or cells: 293T-17 cells, transient transfection
Sequence (P24530 27-442): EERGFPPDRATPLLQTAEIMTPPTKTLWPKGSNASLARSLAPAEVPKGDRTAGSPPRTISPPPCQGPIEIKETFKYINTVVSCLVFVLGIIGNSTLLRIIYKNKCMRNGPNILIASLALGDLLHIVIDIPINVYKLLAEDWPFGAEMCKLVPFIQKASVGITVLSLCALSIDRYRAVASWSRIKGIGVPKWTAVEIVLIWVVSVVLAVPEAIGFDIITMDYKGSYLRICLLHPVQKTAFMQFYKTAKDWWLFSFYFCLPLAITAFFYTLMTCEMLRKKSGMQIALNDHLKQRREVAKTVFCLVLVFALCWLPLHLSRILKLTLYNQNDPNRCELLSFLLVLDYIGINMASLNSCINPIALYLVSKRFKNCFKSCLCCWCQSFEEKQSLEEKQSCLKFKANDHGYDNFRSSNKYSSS
Assay: Screening of polypeptides for activity on human ETB receptor (IP-One Gq kit, % of positive control IRL1620)
Type: cell-based
Conditions: @10nM
Ends that are not written are not given here. * marks the point of attachment. Fumaroyl = O=C(O)/C=C/C(=O)*
# if measured hETBR agonist activity, percentage of activity relative to IRL1620 < 50 %@10nM: Fulfilled  # else: Not fulfilled

Incoming: Does the reported hETBR agonist activity, percentage of activity relative to IRL1620 of Fum-DEEAK(-γE-AEEA-AEEA-ODDA)YFAHLDIIW [BX-67] (Fum-DEEAK with lipidated linker N-terminal) stay below 50 %@10nM?
Outgoing: Fulfilled

Incoming: Then what about the substance Fum-DEEEVYFAHOrnDIIW [BX-59] ?
Outgoing: Not fulfilled

Incoming: Then what about the substance MeO-Fum-D cyclo(EEAK)YFAHLD(2-Abu)IW [BX-65] ?
Outgoing: Not fulfilled

Moving on to another substance below.
Incoming: Does the reported hETBR agonist activity, percentage of activity relative to IRL1620 of Fum-DEEAVYFAHLDVIW (Fumaroyl-DEEAVYFAHLDVIW) [FBX-7] stay below 50 %@10nM?
Outgoing: Not fulfilled

---

Molecular target: human ETB receptor (Homo sapiens)
Construct: expressed in transfected cells; host or cells: 293T-17 cells, transient transfection
Sequence (P24530 27-442): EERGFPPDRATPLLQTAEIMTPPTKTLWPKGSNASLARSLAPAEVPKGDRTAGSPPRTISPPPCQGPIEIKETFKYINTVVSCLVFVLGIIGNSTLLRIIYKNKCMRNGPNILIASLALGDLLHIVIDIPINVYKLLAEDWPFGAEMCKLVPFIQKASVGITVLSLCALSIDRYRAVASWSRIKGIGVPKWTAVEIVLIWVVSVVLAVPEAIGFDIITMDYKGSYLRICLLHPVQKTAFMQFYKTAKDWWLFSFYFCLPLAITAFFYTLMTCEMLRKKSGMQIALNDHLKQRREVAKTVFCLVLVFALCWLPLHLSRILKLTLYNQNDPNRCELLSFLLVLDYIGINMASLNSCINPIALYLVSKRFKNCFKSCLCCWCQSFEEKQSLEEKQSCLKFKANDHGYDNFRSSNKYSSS
Test: Screening of polypeptides for activity on human ETB receptor (IP-One Gq kit, % of positive control IRL1620)
Assay type: cell-based
Numbered stars: 1 amine (or outer) side, 2 acyl side, 3 side chain; on linkers, the order of the positions; unused ones are H or OH. Square brackets hold non-standard residues; d marks the D form. Side chains are listed from the residue outwards. Ends that are not written are not given here. * marks the point of attachment. C18 diacid = O=C(O)CCCCCCCCCCCCCCCCC(=O)*; γGlu = O=C(O)[C@H](CCC(=O)[*:2])N[*:1]; Hexadienoyl(2E,4E) = C/C=C/C=C/C(=O)*; NMeL = CN[C@@H](CC(C)C)C(=O)O; Fumaroyl = O=C(O)/C=C/C(=O)*; Suc = O=C(CCC(=O)[*:2])[*:1]; AEEA = NCCOCCOCC(=O)O
Answer each item with its documented hETBR agonist activity, percentage of activity relative to IRL1620.
Mention the unit after the number when you answer.

Consider the following illustrative entries.
Incoming: If you can, please state the reported hETBR agonist activity, percentage of activity relative to IRL1620 value of SA-DEEAVYFAHLDIIW ({Hexadienoyl(2E,4E)}-DEEAVYFAHLDIIW) [BX-111] .
Outgoing: 64.98%@100nM

Incoming: Then what about the substance Fum-DEEAVYFAHLDVIW (Fumaroyl-DEEAVYFAHLDVIW) [FBX-7] ?
Outgoing: 99.81%@100nM

Incoming: Then what about the substance Fum-DEEAVYFAHL(N-Me)DIIW (Fumaroyl-DEEAVYFAH[NMeL]; not fully specified (C-terminus)) [BX-28] ?
Outgoing: -10.73%@100nM

Incoming: Then what about the substance Suc-DEEAVYFAHOrn(-AEEA-AEEA-γE - ODDA)DIIW [BX-61] ?
Outgoing: 40.94%@100nM

Incoming: Then what about the substance Fum-DEEAK(-γE-AEEA-AEEA-ODDA)YFAHLDIIW [BX-109] (Fum-DEEAK with lipidated linker N-terminal) ?
Outgoing: 74.1%@100nM

Parameter requested: hETBR agonist activity, percentage of activity relative to IRL1620. Apply to each item below.
1. Fum-DEEAVYFAHOrn(-AEEA-AEEA-γE-ODDA)DIIW [BX-51]
2. Suc-DEEAVYFAHL(N-Me)DIIW (Suc-DEEAVYFAH[NMeL]; not fully specified (C-terminus)) [BX-26]
3. Fum-DEEAVYFAHL(N-Me)DI(N-Me)IW (Fumaroyl-DEEAVYFAH[NMeL]; not fully specified (C-terminus)) [BX-29]
4. Fum-DEEAK(-γE-AEEA-AEEA-ODDA)YFAHLDIIW [BX-67] (Fum-DEEAK with lipidated linker N-terminal)

Outgoing:
1. 37.60%@100nM
2. 30.58%@100nM
3. 6.51%@100nM
4. 46.98%@100nM

Parameter requested: hETBR agonist activity, percentage of activity relative to IRL1620. Apply to each item below.
1. Fum-D cyclo(EEAK)YFAHLD(2-Abu)IW [BX-64]
2. Suc-D cyclo(EEAK)YFAHLD(2-Abu)IW [BX-63]
3. Fum-DEEEVYFAHK(-AEEA-AEEA-γE - ODDA)DIIW (Fumaroyl-DEEEVYFAHK([AEEA-AEEA-γGlu-C18 diacid])DIIW) [BX-60]

Outgoing:
["132.16%@100nM", "122.93%@100nM", "4.84%@100nM"]

Parameter requested: hETBR agonist activity, percentage of activity relative to IRL1620. Apply to each item below.
1. Fum-DEEAKYFAHK(-γE-AEEA-AEEA-ODDA)DIIW (Fumaroyl-DEEAKYFAHK([γGlu-AEEA-AEEA-C18 diacid])DIIW) [BX-107]
2. Fum-DEEK(-γE-AEEA-AEEA-ODDA)VYFAHLDIIW (Fum-DEEK with lipidated linker N-terminal) [BX-66]
3. Fum-DEEAK(-γE-AEEA-AEEA-ODDA)YFAHLDVIW (Fum-DEEAK with lipidated linker N-terminal) [BX-110]
4. Suc-DEEAVYFAHL(N-Me)DI(N-Me)IW (Suc-DEEAVYFAH[NMeL]; not fully specified (C-terminus)) [BX-27]

Outgoing:
100.37%@100nM
60.51%@100nM
132.61%@100nM
0.42%@100nM
